From: ChEMBL document CHEMBL5584361

# Test system: PANC-1
# test description: Antiproliferative activity against human PANC-1 cells assessed as cell growth inhibition incubated for 96 hrs by Cell-Titer Glo assay
# assay setup: PANC-1, 96 h
test readout: GI50

Cc1cccnc1C1(C(=O)NC(Cc2cn(-c3ccc(-c4ccc(C#N)cc4)cc3)nn2)C(=O)NC2CCN(CCCOc3cccc4c3C(=O)N(C3CCC(=O)NC3=O)C4=O)CC2)CC1 (configuration not stated) | > 30 µM
Cc1cccnc1C1(C(=O)NC(Cc2cn(-c3ccc(-c4ccc(C#N)cc4)cc3)nn2)C(=O)NCCCCOc2cccc3c2C(=O)N(C2CCC(=O)NC2=O)C3=O)CC1 (configuration not stated) | > 30 µM
CNC(=O)/C(=C\c1cn(-c2ccc(-c3ccc(C#N)cc3)cc2)nn1)NC(=O)C1(c2ccccc2C)CC1 | 23.1 µM
Cc1cccnc1C1(C(=O)NC(Cc2cn(-c3ccc(-c4ccc(C#N)cc4)cc3)nn2)C(=O)NC2CCN(CCCCCOc3cccc4c3C(=O)N(C3CCC(=O)NC3=O)C4=O)CC2)CC1 (configuration not stated) | > 30 µM

Please provide the recorded GI50 for Cc1cccnc1C1(C(=O)NC(Cc2cn(-c3ccc(-c4ccc(C#N)cc4)cc3)nn2)C(=O)NCCCOc2cccc3c2C(=O)N(C2CCC(=O)NC2=O)C3=O)CC1 (configuration not stated) , tested on PANC-1.
> 30 µM

Enter reported GI50 observed with PANC-1 for CNC(=O)C(Cc1cn(-c2ccc(-c3ccc(C#N)cc3)cc2)nn1)NC(=O)C1(c2ncccc2C)CC1 (configuration not stated)
> 30 µM

Lab note: need GI50 for Cc1ccccc1C1(C(=O)NC(Cc2cn(-c3ccc(-c4ccc(C#N)cc4)cc3)nn2)C(=O)NC2CCN(C)CC2)CC1 (configuration not stated) on PANC-1, anyone have it?
9.3 µM
